# assay notes: Selectivity index, ratio of IC50 for african green monkey Vero cells to MIC for Mycobacterium tuberculosis H37Rv
# Format: toxicity, cell-based
# experimental setup: read-out: Selectivity Index
property measured: selectivity ratio

QUERY: Request the reported selectivity ratio associated with `CCn1cc(C(=O)O)c(=O)c2cc(F)c(N3CCN(c4nnc(SCC(=O)c5ccc([N+](=O)[O-])cc5)s4)CC3)cc21`
RESULT: > 10.2

QUERY: Consider the compound `O=C(CSc1nnc(N2CCN(c3cc4c(cc3F)c(=O)c(C(=O)O)cn4C3CC3)CC2)s1)c1ccc([N+](=O)[O-])cc1` and give its measured selectivity ratio.
RESULT: > 12.2

QUERY: Please report the recorded selectivity ratio for `CCn1cc(C(=O)O)c(=O)c2cc(F)c(N3CCN(c4nnc(SCC(=O)c5ccc(Br)cc5)s4)CC3)cc21` .
RESULT: 2

====

Provide the reported MIC of each item.
# System: Escherichia coli
# assay notes: Antibacterial activity against Escherichia coli MTCC 1089 assessed as growth inhibition after 18 hr by broth microdilution method
# Assay type: functional
# experimental setup: MTCC 1089, 18 h

QUERY: State the recorded MIC for this entry: `CCn1cc(C(=O)O)c(=O)c2cc(F)c(N3CCN(c4nnc(SCC(=O)c5ccc([N+](=O)[O-])cc5)s4)CC3)cc21`
RESULT: 16 µg/mL

QUERY: Item under review: `COc1ccc(C(=O)CSc2nnc(N3CCN(c4cc5c(cc4F)c(=O)c(C(=O)O)cn5C4CC4)CC3)s2)cc1` . Reported MIC?
RESULT: 32 µg/mL

QUERY: Would you mind telling me what MIC value was observed for `CCn1cc(C(=O)O)c(=O)c2cc(F)c(N3CCN(c4nnc(SCC(=O)c5ccccc5)s4)CC3)cc21` ?
RESULT: > 64 µg/mL

QUERY: If you can, please state the reported MIC value of `CCn1cc(C(=O)O)c(=O)c2cc(F)c(N3CCNCC3)cc21` .
RESULT: 2 µg/mL

QUERY: Report MIC for `CCn1cc(C(=O)O)c(=O)c2cc(F)c(N3CCN(c4nnc(SCC(=O)c5ccc(OC)cc5)s4)CC3)cc21` please.
RESULT: > 64 µg/mL

QUERY: Query: MIC; subject: `CCn1cc(C(=O)O)c(=O)c2cc(F)c(N3CCN(c4nnc(SCC(=O)c5ccc(Cl)cc5)s4)CC3)cc21`
RESULT: 32 µg/mL

QUERY: What value of MIC has been recorded for this entry: `O=C(CSc1nnc(N2CCN(c3cc4c(cc3F)c(=O)c(C(=O)O)cn4C3CC3)CC2)s1)c1ccc(Cl)cc1`
RESULT: 16 µg/mL

====

What MIC was measured for each of the following?
# Test system: Corynebacterium
# assay notes: Antibacterial activity against Corynebacterium ATCC 29355 assessed as growth inhibition after 18 hr by broth microdilution method
# Format: functional
# experimental setup: ATCC 29355, 18 h
Field format: number, assumed µg/mL, no unit text.

QUERY: State the recorded MIC for this entry: `CCn1cc(C(=O)O)c(=O)c2cc(F)c(N3CCN(c4nnc(SCC(=O)c5ccc(C)cc5)s4)CC3)cc21`
RESULT: 4

QUERY: Give the measured MIC of `CCn1cc(C(=O)O)c(=O)c2cc(F)c(N3CCNCC3)cc21` .
RESULT: 2

QUERY: Given `O=C(CSc1nnc(N2CCN(c3cc4c(cc3F)c(=O)c(C(=O)O)cn4C3CC3)CC2)s1)c1ccccc1` , state its recorded MIC.
RESULT: 16

QUERY: Would you mind telling me what MIC value was observed for `CCn1cc(C(=O)O)c(=O)c2cc(F)c(N3CCN(c4nnc(SCC(=O)c5ccc(Cl)cc5)s4)CC3)cc21` ?
RESULT: 2

QUERY: Fill blank: measured MIC of the compound `CCn1cc(C(=O)O)c(=O)c2cc(F)c(N3CCN(c4nnc(SCC(=O)c5ccccc5)s4)CC3)cc21` is ____.
RESULT: 16

QUERY: Entry `COc1ccc(C(=O)CSc2nnc(N3CCN(c4cc5c(cc4F)c(=O)c(C(=O)O)cn5C4CC4)CC3)s2)cc1` : reported MIC = ?
RESULT: 1

QUERY: // returns reported MIC for input `CCn1cc(C(=O)O)c(=O)c2cc(F)c(N3CCN(c4nnc(SCC(=O)c5ccc(Br)cc5)s4)CC3)cc21`
RESULT: 4

QUERY: Dear colleague, I am looking for the recorded MIC of the following compound: `O=C(CSc1nnc(N2CCN(c3cc4c(cc3F)c(=O)c(C(=O)O)cn4C3CC3)CC2)s1)c1ccc(F)cc1`
RESULT: 4

QUERY: For the compound `O=C(CSc1nnc(N2CCN(c3cc4c(cc3F)c(=O)c(C(=O)O)cn4C3CC3)CC2)s1)c1ccc([N+](=O)[O-])cc1` , what MIC is on record?
RESULT: 0.5

QUERY: I would be grateful if you could share the reported MIC for `CCn1cc(C(=O)O)c(=O)c2cc(F)c(N3CCN(c4nnc(SCC(=O)c5ccc([N+](=O)[O-])cc5)s4)CC3)cc21` .
RESULT: 1

QUERY: Consider the compound shown here: `Cc1ccc(C(=O)CSc2nnc(N3CCN(c4cc5c(cc4F)c(=O)c(C(=O)O)cn5C4CC4)CC3)s2)cc1` What is its recorded MIC?
RESULT: 4

QUERY: For the compound `O=C(CSc1nnc(N2CCN(c3cc4c(cc3F)c(=O)c(C(=O)O)cn4C3CC3)CC2)s1)c1ccc(Br)cc1` , what MIC is on record?
RESULT: 4

QUERY: Given the entry `CCn1cc(C(=O)O)c(=O)c2cc(F)c(N3CCN(c4nnc(SCC(=O)c5ccc(F)cc5)s4)CC3)cc21` , report its measured MIC.
RESULT: 2

QUERY: For the compound `CCn1cc(C(=O)O)c(=O)c2cc(F)c(N3CCN(c4nnc(SCC(=O)c5ccc(OC)cc5)s4)CC3)cc21` , what MIC is on record?
RESULT: 1

QUERY: Recorded MIC for `O=C(CSc1nnc(N2CCN(c3cc4c(cc3F)c(=O)c(C(=O)O)cn4C3CC3)CC2)s1)c1ccc(Cl)cc1` , please?
RESULT: 2

Cited source: ChEMBL document CHEMBL3045188
